Assay: qHTS of pediatric cancer cell lines to identify multiple opportunities for drug repurposing: Primary screen for Saos-2 cells (AID 1347097); also: nearly all actives have a fitted effect of over 40% in size
Conditions: Saos-2 viability, CellTiter-Glo ATP luminescence, 48 h; series mostly up to 46 µM
Inconclusive results are not listed. The source made the active and inactive calls. Calls follow the shape of the dose curve; as a rule, active = well fitted cell-killing curve with a large enough effect; inconclusive = small, poorly fitted or top-dose-only effect; inactive = no such curve, though single readings can be large or run the other way.
assay metric: outcome

- compound: "COC[C@@H](NC(C)=O)C(=O)NCc1ccccc1"
  outcome: "inactive"
- compound: "COc1ccc(Cc2nccc3cc(OC)c(OC)cc23)cc1OC"
  outcome: "inactive"
- compound: "CCC(COC(=O)c1cc(OC)c(OC)c(OC)c1)(c1ccccc1)N(C)C (stereo unspecified)"
  outcome: "inactive"
- compound: "CC(=O)[C@H]1CC[C@H]2[C@@H]3CC[C@H]4C[C@H](O)CC[C@]4(C)[C@H]3C(=O)C[C@]12C"
  outcome: "inactive"
- compound: "N#CC(C#N)=Cc1ccc(O)c(O)c1"
  outcome: "inactive"

Lab note: CCCC(C)(COC(N)=O)COC(=O)NC(C)C (stereo unspecified) gave outcome of inactive

---

Experiment: Cell Viability - LYMP1-003 - Assay at 40 hr (AID 964); also: potency is read from the fitted curve at half-maximal effect; nearly all actives have a fitted effect of over 60% in size
Conditions: LYMP1-003 lymphoblastoid viability; series mostly up to 92.2 µM
Results filed as inconclusive are left out. Activity calls are given as the source filed them. Calls follow the shape of the dose curve; as a rule, active = well fitted cell-killing curve with a large enough effect; inconclusive = small, poorly fitted or top-dose-only effect; inactive = flat fitted curve, though single readings scatter.
// classify into YES for active, NO for inactive

Q) Could you please tell me the result logged for CC(=O)Oc1ccccc1C(=O)Nc1ncc([N+](=O)[O-])s1 in this assay?
A) YES

---

Assay: Primary qHTS for Huh7 cytotoxicity: counterscreen for inhibitors of MERS-S pseudotyped particle cell entry (AID 1479147)
Conditions: cell viability read-out; series mostly up to 57.1 µM
Results filed as inconclusive are left out. The source made the active and inactive calls. Calls come from the whole dose curve.
assay metric: outcome

The following molecules have reported results that may help.
- molecule: "Nc1nc2c(ncn2COC(CO)CO)c(=O)[nH]1"
  result: "inactive"
- molecule: "NNCCc1ccccc1"
  result: "inactive"
- molecule: "CCC(C(N)=O)N1CCCC1=O (stereo unspecified)"
  result: "inactive"
- molecule: "CN1C(=O)CC(C)(c2ccccc2)C1=O (stereo unspecified)"
  result: "inactive"
- molecule: "Oc1ccc(C2CNCCc3c2cc(O)c(O)c3Cl)cc1 (stereo unspecified)"
  result: "inactive"

Lab note: CCCSc1ccc2nc(NC(=O)OC)[nH]c2c1 gave outcome of inactive

Lab note: Oc1ccc(Cl)cc1Cc1ccccc1 gave outcome of inactive

Lab note: OCCN(CCO)c1nc(N2CCCCC2)c2nc(N(CCO)CCO)nc(N3CCCCC3)c2n1 gave outcome of inactive

---

Assay: qHTS of pediatric cancer cell lines to identify multiple opportunities for drug repurposing: Confirmatory screen for SK-N-SH cells (AID 1347129);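 also: cells exposed to compound for 48 h before viability read; nearly all actives have a fitted effect of over 60% in size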
Details: SK-N-SH neuroblastoma cell viability; series mostly up to 46.1 µM
Results filed as inconclusive are left out. Activity calls are given as the source filed them. Calls follow the shape of the dose curve; as a rule, active = well fitted cell-killing curve with a large enough effect; inconclusive = small, poorly fitted or top-dose-only effect; inactive = flat fitted curve, though single readings scatter.
// classify into active, inactive

Recorded results for 6 molecules are shown here.
- molecule: "N[C@@H](Cc1ccc(N(CCCl)CCCl)cc1)C(=O)O"
  category label: "active"
- molecule: "C[C@H]1O[C@@H](O[C@H]2[C@@H](O)C[C@H](O[C@H]3[C@@H](O)C[C@H](O[C@H]4CC[C@@]5(C)[C@H](CC[C@@H]6[C@@H]5CC[C@]5(C)[C@@H](C7=CC(=O)OC7)CC[C@]65O)C4)O[C@@H]3C)O[C@@H]2C)C[C@H](O)[C@@H]1O"
  category label: "active"
- molecule: "Cn1c(CCCC(=O)O)nc2cc(N(CCCl)CCCl)ccc21"
  category label: "inactive"
- molecule: "COC[C@@H](NC(C)=O)C(=O)NCc1ccccc1"
  category label: "inactive"
- molecule: "Cc1sc2c(c1C)C(c1ccc(Cl)cc1)=N[C@@H](CC(=O)OC(C)(C)C)c1nnc(C)n1-2"
  category label: "inactive"
- molecule: "Cn1cc(C2=C(c3cn(C4CCN(Cc5ccccn5)CC4)c4ccccc34)C(=O)NC2=O)c2ccccc21"
  category label: "inactive"

Q) Could you please tell me the result logged for CC(C)CC(N(C)C)C1(c2ccc(Cl)cc2)CCC1 (configuration not stated) in this assay?
A) inactive

---

Test: qHTS for differential inhibitors of proliferation of Plasmodium falciparum line HB3 (AID 1886);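 also: parasites grown with compound for 72 h before SYBR Green readout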
Conditions: Plasmodium falciparum HB3 proliferation inhibition; series mostly up to 28.7 µM
Records with an inconclusive call do not appear. Calls of active or inactive are those of the source. Calls come from the whole dose curve; as a rule, active = well fitted curve in the direction sought with a large enough effect; inconclusive = small, poorly fitted or top-dose-only effect, or another doubt; inactive = no such curve, though single readings can be large or run the other way.
// classify into active, inactive

Recorded results for 8 compounds are shown here.
- mol smiles: "CN(C)CCC=C1c2ccccc2CCc2ccccc21"
  category label: "active"
- mol smiles: "COc1ccccc1N1CCNCC1"
  category label: "inactive"
- mol smiles: "Clc1cccc(N2CCNCC2)c1"
  category label: "inactive"
- mol smiles: "Cc1ncc(CNC(=O)N(CCCl)N=O)c(N)n1"
  category label: "inactive"
- mol smiles: "Nc1ccncc1"
  category label: "inactive"
- mol smiles: "CC(=O)[C@H]1CC[C@H]2[C@@H]3CC[C@H]4C[C@H](O)CC[C@]4(C)[C@H]3C(=O)C[C@]12C"
  category label: "inactive"
- mol smiles: "OCCN1CCN(CCCN2c3ccccc3Sc3ccc(C(F)(F)F)cc32)CC1"
  category label: "active"
- mol smiles: "NCC1(CC(=O)O)CCCCC1"
  category label: "inactive"

Q) Could you please tell me the result logged for CC(C)C(=O)Nc1ccc([N+](=O)[O-])c(C(F)(F)F)c1 in this assay?
A) active

Q) Could you please tell me the result logged for CN1C[C@H](CNC(=O)OCc2ccccc2)C[C@@H]2c3cccc4c3c(cn4C)C[C@H]21 in this assay?
A) active

Q) Could you please tell me the result logged for Fc1ccc(C(OCCN2CCN(CCCc3ccccc3)CC2)c2ccc(F)cc2)cc1 in this assay?
A) active

---

Assay: Cell Proliferation Assay against the TMD8 Cell Line (Caspase readout at 16 hrs) (AID 651712); also: potency is read from the fitted curve at half-maximal effect
Details: TMD8 lymphoma cells, caspase activation luminescence; series mostly up to 46.1 µM
Results filed as inconclusive are left out. Active and inactive are the calls of the source. Calls follow the shape of the dose curve; as a rule, active = well fitted activation curve with a large enough effect; inconclusive = small, poorly fitted or top-dose-only effect; inactive = flat fitted curve, though single readings scatter.
assay metric: Potency

The following compounds have reported results that may help.
- compound: "CO[C@@H](C(=O)N1Cc2[nH]nc(NC(=O)c3ccc(N4CCN(C)CC4)cc3)c2C1)c1ccccc1"
  result: "13.2 µM (active)"
- compound: "CN(C)CCN(C)CCc1ccc(Cl)c(Cl)c1"
  result: "inactive"
- compound: "Cc1sc2c(c1C)C(c1ccc(Cl)cc1)=N[C@@H](CC(=O)OC(C)(C)C)c1nnc(C)n1-2"
  result: "0.469 µM (active)"
- compound: "Cn1cc(C2=C(c3cn(C4CCN(Cc5ccccn5)CC4)c4ccccc34)C(=O)NC2=O)c2ccccc21"
  result: "16.6 µM (active)"
- compound: "CC(O)(CS(=O)(=O)c1ccc(F)cc1)C(=O)Nc1ccc(C#N)c(C(F)(F)F)c1 (stereo not drawn)"
  result: "inactive"

Lab note: COC1(CS(=O)c2ccccc2)CCN(CCc2c[nH]c3ccc(F)cc23)CC1 (stereo not drawn) gave Potency of inactive

Lab note: CNC(=O)N1N=C(c2ccc(N)cc2)c2cc3c(cc2CC1C)OCO3 (stereo not drawn) gave Potency of 18.7 µM (active)

Lab note: C[C@@H]1[C@@H](CC(C[C@H]2O[C@@H]3O[C@]4(C)CC[C@@H]5[C@H](C)CC[C@@H]([C@H]2C)[C@@]35OO4)C[S+](=O)([O-])c2ccc(COC(=O)N(C)C)cc2)O[C@@H]2O[C@]3(C)CC[C@H]4[C@H](C)CC[C@@H]1[C@@]24OO3 (stereo partly drawn) gave Potency of 0.209 µM (active)

---

Experiment: Primary qHTS for inhibitors of MERS-S pseudo-typed particle cell entry (AID 1479149); also: nearly all actives have a fitted effect of over 60% in size
Details: MERS-S pseudotyped particle entry, luciferase; series mostly up to 57.1 µM
Inconclusive results are not listed. Calls of active or inactive are those of the source. The call rests on the fitted dose curve.
// classify into Yes (active), No (inactive)

- compound: "COc1ccc(Cl)cc1C(=O)NCCc1ccc(S(=O)(=O)NC(=O)NC2CCCCC2)cc1"
  category label: "No"
- compound: "O=P(O)(O)C(O)(Cc1cccnc1)P(=O)(O)O"
  category label: "No"
- compound: "Cc1ccc(S(=O)(=O)NC(=O)NN2CC3CCCC3C2)cc1 (stereo not given)"
  category label: "No"

Q) Could you please tell me the result logged for CC(C)NCC(O)COc1ccc(CCOCC2CC2)cc1 (stereo not given) in this assay?
A) No

---

Conditions: Ebola virus entry assay, blue channel fluorescence
The source made the active and inactive calls.
// classify into active, inactive

Recorded results for 3 compounds are shown here.
- mol smiles: "OCCN1C[C@H](O)[C@@H](O)[C@H](O)[C@H]1CO"
  category label: "inactive"
- mol smiles: "Nc1[nH]c(=O)ncc1F"
  category label: "inactive"
- mol smiles: "Nc1nc2c(ncn2COC(CO)CO)c(=O)[nH]1"
  category label: "inactive"

Q) Could you please tell me the result logged for CC[C@H](C)C(=O)O[C@H]1C[C@@H](C)C=C2C=C[C@H](C)[C@H](CC[C@@H]3C[C@@H](O)CC(=O)O3)[C@H]21 in this assay?
A) inactive

Q) Could you please tell me the result logged for CC12CC3CC(C)(C1)CC(N)(C3)C2 in this assay?
A) inactive

Q) Could you please tell me the result logged for NC12CC3CC(CC(C3)C1)C2 in this assay?
A) inactive

Q) Could you please tell me the result logged for CN(C)CCCN1c2ccccc2CCc2ccc(Cl)cc21 in this assay?
A) active
